tested on: SK-MEL-2; assay: NCI tumour cell line growth inhibition, 48 h
Calls of active or inactive are those of the source. Cut-off read from the data, not from the text of the source: active = GI50 up to about 1.1 µM and inactive = higher.
# GI50 annotations

molecule: CC1CN(c2ccc(Cl)cc2)CC(C)(C)OC(=O)O1 (centres undefined)
GI50: > 100 µM (inactive)

molecule: O=C1OC(c2ccco2)=N/C1=C\c1ccc(Cl)c(Cl)c1
GI50: > 100 µM (inactive)

molecule: CC(CC[C@@]1(C)C(=O)CCC2O[C@]21C)[C@H]1C[C@@H](c2ccoc2)OC1=O (some centres undefined)
GI50: > 100 µM (inactive)

molecule: c1ccc(C2Nc3ccccc3C3OCCCC23)cc1 (centres undefined)
GI50: 30.7 µM (inactive)

molecule: COc1ccc2c(c1)CCc1c-2[nH]c2ccc(OC)cc12
GI50: > 100 µM (inactive)

molecule: COC(=O)C(=O)C(C(=O)C(=O)Nc1ccc(C)cc1)c1nc2ccc(C(=O)c3ccccc3)cc2nc1O (centres undefined)
GI50: > 100 µM (inactive)

molecule: O=C1c2ccccc2C2(O)NC(=S)N(c3ccccc3)C12O (centres undefined)
GI50: > 100 µM (inactive)

molecule: O=C1NC(Cc2ccc(O)cc2)C(=O)NC1Cc1ccc(O)cc1 (centres undefined)
GI50: > 100 µM (inactive)

molecule: CCOP(=O)(C=C=C(C)C)OCC
GI50: > 100 µM (inactive)

molecule: N#Cc1cc(N(CCCl)CCCl)c([N+](=O)[O-])cc1[N+](=O)[O-]
GI50: > 100 µM (inactive)

molecule: O=C(O)CNCCc1ccccc1
GI50: > 100 µM (inactive)

molecule: O=C(O)CC(O)(C(=O)O)C(O)C(=O)O (centres undefined)
GI50: > 1000 µM (inactive)

molecule: C=CCN(C(=O)OC(C)(C)C)[C@H](C)C(=O)N[C@@H](C)C(=O)OC
GI50: > 100 µM (inactive)

molecule: COc1ccc(N2C(=O)C3c4[nH]c5ccccc5c4C4CCCCCCC4C3C2=O)cc1 (centres undefined)
GI50: 26.2 µM (inactive)

molecule: CS/C1=C(\c2ccc(C)cc2)N(c2ccccc2)C(=O)C(=O)N(c2ccccc2)/C(c2ccc(C)cc2)=C(/SC)SS1
GI50: > 100 µM (inactive)

molecule: O=C(O)CSC1=NCCN1
GI50: > 100 µM (inactive)

molecule: O=C(/C=C/c1ccccc1O)/C=C/c1ccccc1O
GI50: 9.25 µM (inactive)

molecule: CC(O)=NC(Cc1ccc2ccccc2c1)C(O)=NC(Cc1ccc(Cl)cc1)C(O)=NC(Cc1c[nH]c2ccccc12)C(O)=NC(CO)C(O)=NC(Cc1ccc(O)cc1)C(O)=NC(CCCN=C(N)N)C(O)=NC(CC(C)C)C(O)=NC(CCCN=C(N)N)C(=O)N1CCCC1C(O)=NC(C)C(=N)O (centres undefined)
GI50: 13.4 µM (inactive)

molecule: O=C(OCCN=C1c2ccccc2CCc2ccccc21)c1ccccc1
GI50: > 100 µM (inactive)

---

What follows is a record of GI50 for HCT-15.
readout.name: GI50 (µM)

molecule: CCOC(=O)C12CCC(=O)C=C1[C@@H](C)C(=O)CC2 (some centres undefined)
readout.name: GI50
unit.name: µM
modifier.sign: >
numeric.result: 100
//
molecule: CC1C=CN(N(C)C)C2=C1C(=O)c1cnccc1C2=O (centres undefined)
readout.name: GI50
unit.name: µM
modifier.sign: =
numeric.result: 0.231
//
molecule: CC(O)=NC(Cc1ccc2ccccc2c1)C(O)=NC(Cc1ccc(Cl)cc1)C(O)=NC(Cc1c[nH]c2ccccc12)C(O)=NC(CO)C(O)=NC(Cc1ccc(O)cc1)C(O)=NC(CCCN=C(N)N)C(O)=NC(CC(C)C)C(O)=NC(CCCN=C(N)N)C(=O)N1CCCC1C(O)=NC(C)C(=N)O (centres undefined)
readout.name: GI50
unit.name: µM
modifier.sign: =
numeric.result: 63
//
molecule: CCCC(C(=O)Nc1cccc2nc[nH]c12)C(=O)OCC (centres undefined)
readout.name: GI50
unit.name: µM
modifier.sign: >
numeric.result: 100
